Test system: MCF7
ASSAY PROTOCOL: Antiproliferative activity against human MCF7 cells
Assay type: functional, cell-based
OBSERVED PROPERTY: IC50
Dear colleague, please send the value followed by its unit.

>  <SMILES CODE>
CC(=O)Oc1c2oc3cc(O)c(O)cc3c2c(OC(C)=O)c2oc3cc(O)c(O)cc3c12

>  <SYSTEM NAME>
MCF7

>  <IC50>
35.1 µM

$$$$

Please fill in: IC50 reported for CC(=O)Oc1c(OC(C)=O)c2c3cc(O)c(O)cc3oc2c2oc3cc(O)c(O)cc3c12 = 26.9 µM
